test: Rat pharmacokinetic study (IV and PO); format: in vivo; details: blood, PO 10 mg/kg
METRIC NAME: Cmax (ng/mL)
Provide only the numeric value, understood in ng/mL.

O=C(NCCO)Nc1ccc(-c2nc(N3C[C@H]4CC[C@@H](C3)O4)c3cccn3n2)cc1	296
OCCNC(=S)Nc1ccc(-c2nc(N3C[C@H]4CC[C@@H](C3)O4)c3cccn3n2)cc1	1910
O=C(NCCO)Nc1ccc(-c2nc(N3CCOCC3)c3cccn3n2)cc1	380
S=C(Nc1ccc(-c2nc(N3CCOCC3)c3cccn3n2)cc1)Nc1cccnc1	9990
CC(C)(C)C(=O)OCCNC(=O)Nc1ccc(-c2nc(N3CCOCC3)c3cccn3n2)cc1	1520

Shifting focus to the molecule that follows.
Challenge: Please give the measured Cmax for this molecule: `O=C(Nc1ccc(-c2nc(N3CCOCC3)c3cccn3n2)cc1)Nc1cccnc1`
Response given: 784

* * *

assay: Rat pharmacokinetic study (IV and PO); type: in vivo; settings: PO 10 mg/kg
METRIC NAME: CL (mL/min/kg)
State the answer as a number, implicitly in mL/min/kg.

Consider the reported CL for these compounds:
O=C(NCCO)Nc1ccc(-c2nc(N3C[C@H]4CC[C@@H](C3)O4)c3cccn3n2)cc1 [Example 127]	112.9
O=C(Nc1ccc(-c2nc(N3CCOCC3)c3cccn3n2)cc1)Nc1cccnc1 [Example 14]	30.13

Challenge: Reported CL, compound S=C(Nc1ccc(-c2nc(N3CCOCC3)c3cccn3n2)cc1)Nc1cccnc1 [Example 106] : ____
Response given: 4.12

Challenge: Query: CL; subject: CC(C)(C)C(=O)OCCNC(=O)Nc1ccc(-c2nc(N3CCOCC3)c3cccn3n2)cc1 [Example 128]
Response given: 25.05

Challenge: Given the compound OCCNC(=S)Nc1ccc(-c2nc(N3C[C@H]4CC[C@@H](C3)O4)c3cccn3n2)cc1 [Example 122] , what is its reported CL?
Response given: 13.3

Challenge: What value of CL has been reported for the following compound? O=C(NCCO)Nc1ccc(-c2nc(N3CCOCC3)c3cccn3n2)cc1 [Example 29]
Response given: 99

* * *

# Tmax listing for each entry below
assay: Rat pharmacokinetic study (IV and PO); assay type: in vivo; conditions: blood, PO 10 mg/kg
// note: answer is a bare numeric in h

S=C(Nc1ccc(-c2nc(N3CCOCC3)c3cccn3n2)cc1)Nc1cccnc1	2.5
O=C(Nc1ccc(-c2nc(N3CCOCC3)c3cccn3n2)cc1)Nc1cccnc1	1
OCCNC(=S)Nc1ccc(-c2nc(N3C[C@H]4CC[C@@H](C3)O4)c3cccn3n2)cc1	0.833
CC(C)(C)C(=O)OCCNC(=O)Nc1ccc(-c2nc(N3CCOCC3)c3cccn3n2)cc1	1.67
O=C(NCCO)Nc1ccc(-c2nc(N3C[C@H]4CC[C@@H](C3)O4)c3cccn3n2)cc1	0.417

Now consider a different molecule.
Challenge: Can you look up the measured Tmax of `O=C(NCCO)Nc1ccc(-c2nc(N3CCOCC3)c3cccn3n2)cc1` for me?
Response given: 2

* * *

assay: Rat pharmacokinetic study (IV and PO); format: in vivo; conditions: blood, IV 5 mg/kg
METRIC NAME: Cmax (ng/mL)
Expressed in ng/mL, but write only the number.

Solved entries (count: 3):
OCCNC(=S)Nc1ccc(-c2nc(N3C[C@H]4CC[C@@H](C3)O4)c3cccn3n2)cc1	4700
O=C(NCCO)Nc1ccc(-c2nc(N3CCOCC3)c3cccn3n2)cc1	11900
CN(C)C1CCN(C(=O)c2ccc(NC(=O)Nc3ccc(-c4nc(N5CCOCC5)c5cccn5n4)cc3)cc2)CC1	4710

Challenge: For `CN1CCN(C(=O)c2ccc(NC(=O)Nc3ccc(-c4nc(N5CCOCC5)c5cccn5n4)cc3)cc2)CC1` , what is its reported Cmax?
Response given: 8460

Challenge: // query Cmax value for entry `O=C(NCCO)Nc1ccc(-c2nc(N3C[C@H]4CC[C@@H](C3)O4)c3cccn3n2)cc1`
Response given: 3380

Challenge: Entry under review: `O=C(Nc1ccc(-c2nc(N3CCOCC3)c3cccn3n2)cc1)Nc1cccnc1` . Reported Cmax?
Response given: 6560

Challenge: Consider the compound `S=C(Nc1ccc(-c2nc(N3CCOCC3)c3cccn3n2)cc1)Nc1cccnc1` and give its measured Cmax.
Response given: 21200
